Each recorded value in this set is attributed to paper PMC11091072.

# reported n (stoichiometry, ITC); entries follow
target: NikA (Klebsiella pneumoniae); format: binding; conditions: 37 °C, pH 7.5
Just the number, please, no unit after it.

- chemical-string: "N[C@@H](CN[C@@H](CN[C@@H](CC(=O)O)C(=O)O)C(=O)O)C(=O)O.[Zn+2]"
  n (stoichiometry, ITC): 0.78
- chemical-string: "NC(=O)C[C@H](NC[C@H](NC[C@H](N)C(=O)O)C(=O)O)C(=O)O.[Zn+2]"
  n (stoichiometry, ITC): 1.14

Query :: n (stoichiometry, ITC) lookup needed for N[C@@H](CN[C@@H](CN[C@@H](Cc1cnc[nH]1)C(=O)O)C(=O)O)C(=O)O.[Zn+2] , thanks.
Result :: 0.76

Query :: n (stoichiometry, ITC) lookup needed for N[C@@H](CN[C@@H](CN[C@@H](CC(=O)O)C(=O)O)C(=O)O)C(=O)O.[Co+2] , thanks.
Result :: 1.06

Query :: n (stoichiometry, ITC) lookup needed for N[C@@H](CN[C@@H](CC(=O)O)C(=O)O)C(=O)O.[Zn+2] , thanks.
Result :: 1.15

====

molecular target: NikA (Klebsiella pneumoniae, UniProt A6TFA3); assay type: binding; details: 37 °C, pH 7.5
Sequence (A6TFA3 entry or part of it): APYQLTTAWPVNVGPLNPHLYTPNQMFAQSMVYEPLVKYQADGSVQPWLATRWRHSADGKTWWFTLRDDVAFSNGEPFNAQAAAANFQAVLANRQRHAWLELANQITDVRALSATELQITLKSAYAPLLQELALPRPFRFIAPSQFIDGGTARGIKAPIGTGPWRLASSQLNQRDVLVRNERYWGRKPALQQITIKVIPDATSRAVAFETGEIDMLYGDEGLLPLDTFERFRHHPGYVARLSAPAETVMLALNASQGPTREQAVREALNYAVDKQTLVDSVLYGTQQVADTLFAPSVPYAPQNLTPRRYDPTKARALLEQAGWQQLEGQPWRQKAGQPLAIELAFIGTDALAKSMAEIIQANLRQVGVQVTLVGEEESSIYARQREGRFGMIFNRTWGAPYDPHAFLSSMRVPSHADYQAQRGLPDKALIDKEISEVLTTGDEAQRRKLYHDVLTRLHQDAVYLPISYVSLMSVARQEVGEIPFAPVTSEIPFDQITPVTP
# reported −T∆S; entries follow
Answer in kcal/mol, number only, no unit symbol.

These recorded examples may help you get a feel for the data.
- chemical-string: "NC(=O)C[C@H](NC[C@H](NC[C@H](N)C(=O)O)C(=O)O)C(=O)O.[Zn+2]"
  unit-of-measure: "kcal/mol"
  recorded-value: 4.7
- chemical-string: "N[C@@H](CN[C@@H](CN[C@@H](CC(=O)O)C(=O)O)C(=O)O)C(=O)O.[Zn+2]"
  unit-of-measure: "kcal/mol"
  recorded-value: 4.3
- chemical-string: "N[C@@H](CN[C@@H](CN[C@@H](CC(=O)O)C(=O)O)C(=O)O)C(=O)O.[Co+2]"
  unit-of-measure: "kcal/mol"
  recorded-value: 3.6
- chemical-string: "N[C@@H](CN[C@@H](CC(=O)O)C(=O)O)C(=O)O.[Zn+2]"
  unit-of-measure: "kcal/mol"
  recorded-value: 2.2

Next item in the queue.
Query :: −T∆S lookup needed for N[C@@H](CN[C@@H](CN[C@@H](Cc1cnc[nH]1)C(=O)O)C(=O)O)C(=O)O.[Zn+2] , thanks.
Result :: 4.5

====

target: NikA (Klebsiella pneumoniae, UniProt A6TFA3)
Label 1 when Kd is strictly below 7 µM; otherwise label -1.

- compound: "N[C@@H](CN[C@@H](CN[C@@H](Cc1cnc[nH]1)C(=O)O)C(=O)O)C(=O)O.[Zn+2] [Zn-AMA(His)]"
  group: 1

Query :: Please indicate whether the reported Kd of NC(=O)C[C@H](NC[C@H](NC[C@H](N)C(=O)O)C(=O)O)C(=O)O.[Zn+2] [Zn-AMA(Asn)] is strictly below 7 µM.
Result :: 1

Query :: Please indicate whether the reported Kd of N[C@@H](CN[C@@H](CC(=O)O)C(=O)O)C(=O)O.[Zn+2] [Zn-Toxin A] is strictly below 7 µM.
Result :: 1

Query :: Please indicate whether the reported Kd of N[C@@H](CN[C@@H](CN[C@@H](CC(=O)O)C(=O)O)C(=O)O)C(=O)O.[Co+2] [Co-AMA] is strictly below 7 µM.
Result :: -1

====

# reported ∆H; entries follow
biological target: NikA (Klebsiella pneumoniae, UniProt A6TFA3); assay type: binding; conditions: 37 °C, pH 7.5
Answer in kcal/mol, number only, no unit symbol.

These recorded examples may help you get a feel for the data.
- molecule: "N[C@@H](CN[C@@H](CN[C@@H](Cc1cnc[nH]1)C(=O)O)C(=O)O)C(=O)O.[Zn+2] [Zn-AMA(His)]"
  unit-of-measure: "kcal/mol"
  ∆H: -13.1
- molecule: "N[C@@H](CN[C@@H](CN[C@@H](CC(=O)O)C(=O)O)C(=O)O)C(=O)O.[Co+2] [Co-AMA]"
  unit-of-measure: "kcal/mol"
  ∆H: -10.5
- molecule: "NC(=O)C[C@H](NC[C@H](NC[C@H](N)C(=O)O)C(=O)O)C(=O)O.[Zn+2] [Zn-AMA(Asn)]"
  unit-of-measure: "kcal/mol"
  ∆H: -13.1
- molecule: "N[C@@H](CN[C@@H](CC(=O)O)C(=O)O)C(=O)O.[Zn+2] [Zn-Toxin A]"
  unit-of-measure: "kcal/mol"
  ∆H: -9.6

Next item in the queue.
Query :: ∆H lookup needed for N[C@@H](CN[C@@H](CN[C@@H](CC(=O)O)C(=O)O)C(=O)O)C(=O)O.[Zn+2] [Zn-AMA] , thanks.
Result :: -11.6
